System: Klebsiella pneumoniae
Test: Antimicrobial activity against Klebsiella pneumoniae ATCC 13883 by serial dilution/CLSI method
Format: functional
Non-standard residues stand in square brackets, D forms with d. Residues, ends and D or L forms follow the SMILES beside them. aIle = CC[C@@H](C)[C@H](N)C(=O)O
Parameter: MIC. Scope: all listed entries.

{"columns": ["compound", "MIC"],
 "data": [
  ["CN[C@H](CC(C)C)C(=O)N[C@H]1C(=O)N[C@@H](CC(N)=O)C(=O)N[C@H]2C(=O)N[C@H]3C(=O)N[C@H](C(=O)N[C@H](C(=O)O)c4cc(O)cc(O)c4-c4cc3ccc4O)[C@H](O)c3ccc(c(Cl)c3)Oc3cc2cc(c3O[C@@H]2O[C@H](CO)[C@@H](O)[C@H](O)[C@H]2O[C@H]2C[C@](C)(N)[C@H](O)[C@H](C)O2)Oc2ccc(cc2Cl)[C@H]1O [VANCOMYCIN]", "> 128 µg/mL"]
]}

Record CC[C@@H](C)[C@@H]1NC(=O)[C@@H](CC(C)C)NC(=O)[C@H](CC(C)C)NC(=O)[C@H](Cc2c[nH]c3ccccc23)NC(=O)CNC(=O)[C@H](CC(N)=O)NC1=O [DESOTAMIDE] (cyclo(GWL[dL][aIle]N)) / Klebsiella pneumoniae, MIC recorded as > 128 µg/mL
